B1: C20orf112 (parent)
chain: YANGGLNYSYRGYGALSSNLQPPA

Variants of: B1
Test: protein stability index of a GFP-peptide fusion (GPS, HEK-293T) (PSI 1-6); higher = more stable;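 further: lentivirally expressed fusions sorted by FACS into six bins by GFP to DsRed ratio, PSI derived from sequencing read proportions per bin multiplied by bin number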
Condition: c terminus: a fixed tail appended
Property: protein stability index; scope: individual variants
Reply: number alone, nothing else.

YANGGLNYSYRGYGALSLNLQPPA [S18L] | 1.85

Request: Need protein stability index of YANGGLNYSYRGYGALSSNLQPPC [A24C] , thanks.
Result: 2.37

Request: Data request, read-out protein stability index, for YANGGLNNSYRGYGALSSNLQPPA [Y8N]
Result: 2.22

Request: Dear colleague, I am looking for the recorded protein stability index of the following variant: MANGGLNYSYRGYGALSSNLQPPA [Y1M]
Result: 2.87

Request: Given YANGGLNYSARGYGALSSNLQPPA [Y10A] , state its recorded protein stability index.
Result: 1.9

Request: Endpoint output: protein stability index of SANGGLNYSYRGYGALSSNLQPPA [Y1S] . Value?
Result: 3.12
